Test system: Staphylococcus aureus (ATCC 29213)
Method summary: Checkerboard combination / MIC assay with S. aureus ATCC 29213
Format: cell-based
Test parameters: Chlopam 0.003906 μg/mL; S. aureus ATCC 29213
Measured property: MIC of antibiotic in combination with Chlopam (µg/mL)

>>> recorded_number("CO/N=C(\\C(=O)N[C@@H]1C(=O)N2C(C(=O)[O-])=C(C[N+]3(C)CCCC3)CS[C@H]12)c1csc(N)n1 [Cefepime]")
4
>>> recorded_number("CC(=O)NC[C@H]1CN(c2ccc(N3CCOCC3)c(F)c2)C(=O)O1")
2
>>> recorded_number("Cc1onc(-c2ccccc2)c1C(=O)N[C@@H]1C(=O)N2[C@@H]1SC(C)(C)[C@@H]2C(=O)O")
0.5
>>> recorded_number("CN[C@H](CC(C)C)C(=O)N[C@H]1C(=O)N[C@@H](CC(N)=O)C(=O)N[C@H]2C(=O)N[C@H]3C(=O)N[C@H](C(=O)N[C@H](C(=O)O)c4cc(O)cc(O)c4-c4cc3ccc4O)[C@H](O)c3ccc(c(Cl)c3)Oc3cc2cc(c3O[C@@H]2O[C@H](CO)[C@@H](O)[C@H](O)[C@H]2O[C@H]2C[C@](C)(N)[C@H](O)[C@H](C)O2)Oc2ccc(cc2Cl)[C@H]1O")
1
>>> recorded_number("CCCCCCCCCC(=O)N[C@@H](Cc1c[nH]c2ccccc12)C(=O)N[C@H](CC(N)=O)C(=O)N[C@@H](CC(=O)O)C(=O)N[C@@H]1C(=O)NCC(=O)N[C@@H](CCCN)C(=O)N[C@@H](CC(=O)O)C(=O)N[C@H](C)C(=O)N[C@@H](CC(=O)O)C(=O)NCC(=O)N[C@H](CO)C(=O)N[C@@H]([C@H](C)CC(=O)O)C(=O)N[C@@H](CC(=O)c2ccccc2N)C(=O)O[C@@H]1C")
0.5
>>> recorded_number("C/C(=C\\C(=O)OCCCCCCCCC(=O)O)C[C@@H]1OC[C@H](C[C@@H]2O[C@H]2[C@@H](C)[C@H](C)O)[C@@H](O)[C@H]1O")
0.5
